system: β-III Overexpressing HeLa; test: antiproliferative activity, isogenic HeLa pair, βIII tubulin; format: cell-based; settings: HeLa cell line pair, wild type and βIII tubulin
Below, each entry is listed with its recorded Rr.

COMPOUND	Rr
CC(=O)O[C@@]12CO[C@@H]1C[C@H](O)[C@@]1(C)C(=O)[C@H](O)C3=C(C)[C@@H](OC(=O)[C@H](O)[C@@H](NC(=O)OC(C)(C)C)c4ccccc4)C[C@@](O)([C@@H](OC(=O)c4ccccc4)[C@H]21)C3(C)C [Docetaxel, docetaxel, reference compound]	0.31
COc1cccc2cc(N(C)c3ncnc4c3CCC4)ccc12	1.07
COc1ccc(N(C)c2nc(C)nc3c2CCC3)c2ccccc12	0.47
COc1ccc(/C=C\c2cc(OC)c(OC)c(OC)c2)cc1O [CA4, combretastatin A-4, reference compound]	0.72
COc1cccc2cc(N(C)c3nc(C)nc4c3CCC4)ccc12	1.0
CC(=O)O[C@H]1C(=O)[C@@]2(C)[C@H]([C@H](OC(=O)c3ccccc3)[C@]3(O)C[C@H](OC(=O)[C@H](O)[C@@H](NC(=O)c4ccccc4)c4ccccc4)C(C)=C1C3(C)C)[C@]1(OC(C)=O)CO[C@@H]1C[C@@H]2O [Paclitaxel, paclitaxel, reference compound]	0.33

###

Below, each entry is listed with its recorded EC50.
test system: A-10 cells; assay: cell-based phenotypic screen of microtubule disrupting effects; design: species or system rat; settings: Rattus norvegicus, A10; read-out: EC50 in A-10 cells (Tubulin depolymerization inhibitory acitivity)
PROPERTY: EC50

COMPOUND	RESULT
COc1ccc(N(C)c2nc(C)nc3c2CCC3)c2ccccc12 [Compound 14]	0.5 µM
COc1ccc2c(N(C)c3nc(C)nc4c3CCC4)cccc2c1 [Compound 11]	> 10 µM
COc1ccc2c(N(C)c3ncnc4c3CCC4)cccc2c1 [Compound 10]	> 10 µM

###

test system: MDA-MB-435 tumor cell line; assay: inhibition of proliferation, sulforhodamine B assay; assay type: cell-based; details: Homo sapiens, MDA-MB-435, MDA-MB-435; read-out: IC50 ± SD (MDA-MB-435) Tumor cells
pIC50: −log10 of the molar value.
PROPERTY: pIC50

STRUCTURE STRING	PROPERTY	NUMERIC RESULT
COc1ccc(N(C)c2nc(C)nc3c2CCC3)c2ccccc12	pIC50	6.63
COc1cccc2cc(N(C)c3ncnc4c3CCC4)ccc12	pIC50	7.47
COc1ccc(N(C)c2nc(C)nc3c2CCC3)cc1	pIC50	8.15
COc1cccc2cc(N(C)c3nc(C)nc4c3CCC4)ccc12	pIC50	8.00

###

Below, each entry is listed with its recorded pIC50.
tested on: β-III Overexpressing HeLa; assay: antiproliferative activity, isogenic HeLa pair, βIII tubulin; format: cell-based; settings: Homo sapiens, HeLa; read-out: IC50 ± SD β-III Overexpressing HeLa
pIC50: −log10 of the molar value.

MOLECULE	BOUND OPERATOR	pIC50
CC(=O)O[C@H]1C(=O)[C@@]2(C)[C@H]([C@H](OC(=O)c3ccccc3)[C@]3(O)C[C@H](OC(=O)[C@H](O)[C@@H](NC(=O)c4ccccc4)c4ccccc4)C(C)=C1C3(C)C)[C@]1(OC(C)=O)CO[C@@H]1C[C@@H]2O [Paclitaxel, paclitaxel, reference compound]	=	7.80
COc1cccc2cc(N(C)c3nc(C)nc4c3CCC4)ccc12 [Compound 13]	=	8.40
COc1ccc2c(N(C)c3nc(C)nc4c3CCC4)cccc2c1 [Compound 11]	<	5.00
CC(=O)O[C@@]12CO[C@@H]1C[C@H](O)[C@@]1(C)C(=O)[C@H](O)C3=C(C)[C@@H](OC(=O)[C@H](O)[C@@H](NC(=O)OC(C)(C)C)c4ccccc4)C[C@@](O)([C@@H](OC(=O)c4ccccc4)[C@H]21)C3(C)C [Docetaxel, docetaxel, reference compound]	=	7.89
COc1cccc2cc(N(C)c3ncnc4c3CCC4)ccc12 [Compound 12]	=	7.85
COc1ccc(N(C)c2nc(C)nc3c2CCC3)c2ccccc12 [Compound 14]	=	6.74

// provenance: patent US20140303188A1
